target: GluA2/3 (Homo sapiens, UniProt P42262+P42263)
Construct: expressed in transfected cells; host or cells: HEK293T
Sequence (P42262 25-883 isoform P42262-2 limits assumed): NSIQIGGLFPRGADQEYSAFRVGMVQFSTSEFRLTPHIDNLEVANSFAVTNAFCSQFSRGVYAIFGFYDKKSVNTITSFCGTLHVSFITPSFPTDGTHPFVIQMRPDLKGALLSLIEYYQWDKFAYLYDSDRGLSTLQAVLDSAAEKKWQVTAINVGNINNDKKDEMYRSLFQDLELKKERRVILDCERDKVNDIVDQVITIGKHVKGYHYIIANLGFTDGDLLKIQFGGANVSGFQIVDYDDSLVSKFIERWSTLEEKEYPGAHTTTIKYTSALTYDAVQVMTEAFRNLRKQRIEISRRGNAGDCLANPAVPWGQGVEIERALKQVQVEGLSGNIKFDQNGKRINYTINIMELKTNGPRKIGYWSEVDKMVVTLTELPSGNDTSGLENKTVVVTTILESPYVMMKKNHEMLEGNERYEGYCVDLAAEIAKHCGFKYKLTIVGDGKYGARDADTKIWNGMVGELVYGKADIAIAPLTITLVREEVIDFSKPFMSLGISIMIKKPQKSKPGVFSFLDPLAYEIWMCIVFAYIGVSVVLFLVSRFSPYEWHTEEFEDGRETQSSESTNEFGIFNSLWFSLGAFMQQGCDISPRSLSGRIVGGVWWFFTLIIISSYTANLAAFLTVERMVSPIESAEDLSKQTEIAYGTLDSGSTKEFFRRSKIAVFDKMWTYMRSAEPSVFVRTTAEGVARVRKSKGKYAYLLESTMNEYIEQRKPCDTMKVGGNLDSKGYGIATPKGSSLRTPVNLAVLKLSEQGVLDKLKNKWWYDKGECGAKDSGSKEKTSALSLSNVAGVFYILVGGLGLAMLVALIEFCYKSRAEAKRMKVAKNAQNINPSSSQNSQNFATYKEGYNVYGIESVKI
Sequence (P42263 29-894 isoform P42263-2 limits assumed): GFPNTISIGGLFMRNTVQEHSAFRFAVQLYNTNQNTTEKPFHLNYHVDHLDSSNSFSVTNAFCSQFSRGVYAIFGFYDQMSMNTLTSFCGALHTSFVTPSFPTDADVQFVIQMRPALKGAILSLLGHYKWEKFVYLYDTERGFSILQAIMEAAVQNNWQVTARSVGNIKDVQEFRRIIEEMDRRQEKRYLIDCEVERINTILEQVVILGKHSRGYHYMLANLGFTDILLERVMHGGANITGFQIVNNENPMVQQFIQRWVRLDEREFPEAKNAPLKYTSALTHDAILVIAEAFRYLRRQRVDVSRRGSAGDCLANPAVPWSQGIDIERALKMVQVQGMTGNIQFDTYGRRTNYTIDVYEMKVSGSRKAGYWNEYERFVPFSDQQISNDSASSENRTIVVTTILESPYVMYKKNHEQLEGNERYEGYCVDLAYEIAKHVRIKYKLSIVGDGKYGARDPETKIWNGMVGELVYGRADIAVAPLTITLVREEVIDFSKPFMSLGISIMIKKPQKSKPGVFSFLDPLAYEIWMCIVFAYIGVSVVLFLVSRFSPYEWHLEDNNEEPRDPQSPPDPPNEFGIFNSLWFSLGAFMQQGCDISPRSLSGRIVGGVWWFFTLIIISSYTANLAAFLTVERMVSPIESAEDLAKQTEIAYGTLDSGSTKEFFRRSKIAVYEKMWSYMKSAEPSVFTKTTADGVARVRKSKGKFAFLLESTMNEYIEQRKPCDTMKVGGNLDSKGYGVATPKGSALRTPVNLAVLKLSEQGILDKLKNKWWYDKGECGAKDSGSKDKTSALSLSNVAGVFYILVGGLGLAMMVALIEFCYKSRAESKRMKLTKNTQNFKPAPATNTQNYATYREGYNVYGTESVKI
assay_method_text: Whole-cell patch-clamp recordings of heteromeric GluA2/3 AMPAR in transfected HEK293T cells
Type: cell-based
reported_conditions: Table S6, read-out: Log IC50 (converted)

smiles_input | unit_annotation | IC50
COc1ccc(-c2nc(C(=O)Nc3ccc(OC)c(OC)c3)cs2)cc1 | µM | 3.39
COc1ccc(-c2nc(C(=O)Nc3cc(OC)ccc3OC)cs2)cc1 | µM | 3.39
COc1ccc(-c2nc(C(=O)Nc3ccc(C(C)(C)C)cc3)cs2)cc1 | µM | 5.62
COc1ccc(-c2nc(C(=O)Nc3ccccc3)cs2)cc1 | µM | 5.5
COc1ccc(-c2nc(C(=O)Nc3cc(OC)c(OC)c(OC)c3)cs2)cc1 | µM | 3.02
